- tested_on: Pf20S β5 (Plasmodium falciparum, UniProt A0A5K1K7U1+Q8IJT1)
- Sequence (Q8IJT1 entry or part of it): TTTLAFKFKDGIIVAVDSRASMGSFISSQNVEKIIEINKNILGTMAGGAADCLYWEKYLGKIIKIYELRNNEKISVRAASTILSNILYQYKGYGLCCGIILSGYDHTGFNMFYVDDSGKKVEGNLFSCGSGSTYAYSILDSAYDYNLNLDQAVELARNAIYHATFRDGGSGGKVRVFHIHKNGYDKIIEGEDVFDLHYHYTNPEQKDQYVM
- Sequence (A0A5K1K7U1 entry or part of it): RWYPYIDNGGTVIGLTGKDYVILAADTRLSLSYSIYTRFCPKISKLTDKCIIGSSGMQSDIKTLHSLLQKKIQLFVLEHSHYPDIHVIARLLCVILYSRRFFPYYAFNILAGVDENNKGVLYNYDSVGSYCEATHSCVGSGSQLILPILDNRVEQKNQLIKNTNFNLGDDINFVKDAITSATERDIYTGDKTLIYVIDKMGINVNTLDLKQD
- procedure_summary: Kinetic analysis, Pf20S β5 (Ac-WLA-AMC)
- protocol_conditions: equilibrium constant, Figure S3D; read-out: Ki, P. falciparum β5
pKi: −log10 of the molar value.
readout_kind: pKi

structure_string=CC(C)C[C@H](NC(=O)[C@H](Cc1ccccc1)NC(=O)Cc1ccc(O)cc1)B(O)O tested_on="Pf20S β5 (Plasmodium falciparum, UniProt A0A5K1K7U1+Q8IJT1)" result_value=~8.30

----------
- Test system: HCT116 cells
- procedure_summary: HCT116 cellular toxicity (CellTiter-Glo, 72 h)
- Type: cell-based, human
- protocol_conditions: supplement CSV
Item-by-item account of HCT116 LD50 (72-h)
readout_kind: HCT116 LD50 (72-h) (µM)

compound="CC(=O)N1CCC[C@H]1C(=O)N[C@@H](C)C(=O)N[C@@H](CC(C)C)B(O)O [MPI-2]" readout_kind="HCT116 LD50 (72-h)" result_value=1.3
compound="CC(=O)N1CCC[C@@H]1C(=O)N[C@@H](C)C(=O)N[C@@H](Cc1ccccc1)B(O)O [MPI-1]" readout_kind="HCT116 LD50 (72-h)" result_value=0.79
compound="CC(C)C[C@H](NC(=O)[C@H](Cc1ccccc1)NC(=O)Cc1ccc(O)cc1)B(O)O [MPI-4]" readout_kind="HCT116 LD50 (72-h)" result_value=0.025
compound="CC(C)C[C@H](NC(=O)[C@H](Cc1ccccc1)NC(=O)c1cnccn1)B(O)O [bortezomib, reference compound]" readout_kind="HCT116 LD50 (72-h)" result_value=0.006
compound="Cc1ccc(S(=O)(=O)N[C@@H](CC(=O)NCC(C)(C)C)C(=O)N[C@@H](Cc2ccccc2)C(=O)N[C@@H](CC(C)C)B(O)O)cc1 [MPI-3]" readout_kind="HCT116 LD50 (72-h)" result_value=0.027
